tested on: Saccharomyces cerevisiae; assay: protein stability index of tFT-peptide fusion (C-terminal peptide) (PSI (0-1 scale)); higher = more stable (slower turnover); details: genetic background: wild type; temperature: 30 C;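 note: PSI is a weighted mean of sequencing reads over stability bins, variants kept only with over 10 reads, mCherry proximal and sfGFP distal, peptide attached via GGGS linker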
The reader will find reported protein stability index values listed item by item below.
Answer as a number with no unit attached.

querySequence: RGKVVRGLLFCA
numericResult: 0.3

querySequence: PLLHSARSSPFR
numericResult: 0.699

querySequence: MTMGSIGNFDQG
numericResult: 0.611

Challenge: protein stability index of `PFRFSPFPLPLP` on Saccharomyces cerevisiae?
Response given: 0.695

Challenge: protein stability index of `VSIRVVVWVSWG` on Saccharomyces cerevisiae?
Response given: 0.226

Challenge: protein stability index of `DMCLSVIEQTAC` on Saccharomyces cerevisiae?
Response given: 0.612

Challenge: protein stability index of `HACGGVFLSSVR` on Saccharomyces cerevisiae?
Response given: 0.693

Challenge: protein stability index of `LLPCLSSLPPLP` on Saccharomyces cerevisiae?
Response given: 0.7

Challenge: protein stability index of `FASSSDSLWRGI` on Saccharomyces cerevisiae?
Response given: 0.679

Challenge: protein stability index of `AGHILSDGTYLP` on Saccharomyces cerevisiae?
Response given: 0.826

Challenge: protein stability index of `EVDRGSNWEGRL` on Saccharomyces cerevisiae?
Response given: 0.66

Challenge: protein stability index of `GASGGGQSSFGE` on Saccharomyces cerevisiae?
Response given: 0.669

Challenge: protein stability index of `PLRPPPSPLSPR` on Saccharomyces cerevisiae?
Response given: 0.76

Challenge: protein stability index of `AGTIRTTPLTAL` on Saccharomyces cerevisiae?
Response given: 0.643

Challenge: protein stability index of `KHQNEKKQTNKA` on Saccharomyces cerevisiae?
Response given: 0.623

Challenge: protein stability index of `PSPTPTMPPPPP` on Saccharomyces cerevisiae?
Response given: 0.71

Challenge: protein stability index of `PRLVTLALPRTR` on Saccharomyces cerevisiae?
Response given: 0.716

Challenge: protein stability index of `FVVLVFMLGSVC` on Saccharomyces cerevisiae?
Response given: 0.365

Challenge: protein stability index of `LVAGFVFIFFYR` on Saccharomyces cerevisiae?
Response given: 0.372

Attribution: the supplement of paper PMC10724198
